- target or test system: DRB1*0901
- test summary: binding to purified HLA
experimental readout: IC50 (µM)

Reference set, count: 3
{"binder": "AAAHFVAAFTLKAEA [H4.F9.E14]", "units label": "µM", "readout number": 0.046}
{"binder": "AAAEFVAAWTLHAAA [E4.H12]", "units label": "µM", "readout number": 0.044}
{"binder": "AAAEFVAAYTLHAAA [E4.Y9.H12]", "units label": "µM", "readout number": 0.028}

[P] AAAHFVAANTLHAAA [H4.N9.H12]
[Q] AAANFVAAYTLHAAA [N4.Y9.H12]
Hey, between P and Q which has a smaller measured IC50? Provide the label of your selected option as the answer.
Q
